Recorded values, source patent US20260274829A1.

Assayed target: human Cereblon WT GST-tagged protein (Homo sapiens)
Construct: purchased CISBIO 64BDCRBNPEH
Sequence (Q96SW2 whole entry): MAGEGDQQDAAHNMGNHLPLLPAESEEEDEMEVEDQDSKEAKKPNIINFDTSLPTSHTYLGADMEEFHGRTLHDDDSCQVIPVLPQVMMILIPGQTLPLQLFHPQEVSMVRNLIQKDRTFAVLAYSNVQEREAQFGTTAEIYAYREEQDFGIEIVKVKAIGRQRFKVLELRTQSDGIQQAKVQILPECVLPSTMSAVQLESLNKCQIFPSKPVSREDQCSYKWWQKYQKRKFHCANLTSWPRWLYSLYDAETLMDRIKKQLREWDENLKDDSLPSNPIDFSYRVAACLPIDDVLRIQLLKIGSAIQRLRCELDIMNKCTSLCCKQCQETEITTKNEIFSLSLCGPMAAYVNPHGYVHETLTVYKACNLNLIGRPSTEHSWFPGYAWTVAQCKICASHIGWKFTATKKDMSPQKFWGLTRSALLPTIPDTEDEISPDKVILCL
Test: CRBN binding, HTRF CEREBLON BINDING kit
Particulars: CRBN binding, HTRF CEREBLON BINDING kit
pIC50: −log10 of the molar value.
Outcome measure: pIC50

Measured pIC50 for this entry `CN(C)C(=O)c1cc2cnc(Nc3ccc(N4CCC(N(C)Cc5ccc(N6CCC(=O)NC6=O)cc5)CC4)cn3)nc2n1C1CCCC1` on human Cereblon WT GST-tagged protein (Homo sapiens): 6.00 to 6.30

Measured pIC50 for this entry O=C1CCN(c2cccc(CN3CCN(C4CCN(c5ccc(-c6cc(F)c7c(c6)C(=O)N(C(C(=O)Nc6nccs6)c6ncn8c6CCC8)C7)cc5)CC4)CC3)c2)C(=O)N1 (stereo not drawn) on human Cereblon WT GST-tagged protein (Homo sapiens): > 6.30

Measured pIC50 for this entry O=C1CCN(c2ccc(CN3C4CCC3CN(c3ccc(-c5cc(F)c6c(c5)C(=O)N(C(C(=O)Nc5nccs5)c5ncn7c5CCC7)C6)cc3)C4)cc2)C(=O)N1 (stereo not drawn) on human Cereblon WT GST-tagged protein (Homo sapiens): 6.00 to 6.30

Measured pIC50 for this entry `CC(C)(O)c1cc2nc(C3CCN(Cc4cccc(N5CCC(=O)NC5=O)c4)CC3)oc2cc1NC(=O)c1cccc(C(F)(F)F)n1` on human Cereblon WT GST-tagged protein (Homo sapiens): 6.00 to 6.30

Measured pIC50 for this entry O=C1CCC(Nc2cccc(CN3C[C@H]4C[C@@H]3CN4c3ccc(-c4cc(F)c5c(c4)C(=O)N(C(C(=O)Nc4nccs4)c4ncn6c4CCC6)C5)cc3)c2)C(=O)N1 (stereo partly drawn) on human Cereblon WT GST-tagged protein (Homo sapiens): 6.00 to 6.30

Measured pIC50 for this entry COc1cc(N2CCN(Cc3ccc(C4CCC(=O)NC4=O)cn3)CC2)ccc1Nc1ncc(Cl)c(Nc2ccccc2P(C)(C)=O)n1 (stereo not drawn) on human Cereblon WT GST-tagged protein (Homo sapiens): 6.00 to 6.30
